Target: Nicotinamide phosphoribosyltransferase (Homo sapiens)
Sequence (P43490 whole entry): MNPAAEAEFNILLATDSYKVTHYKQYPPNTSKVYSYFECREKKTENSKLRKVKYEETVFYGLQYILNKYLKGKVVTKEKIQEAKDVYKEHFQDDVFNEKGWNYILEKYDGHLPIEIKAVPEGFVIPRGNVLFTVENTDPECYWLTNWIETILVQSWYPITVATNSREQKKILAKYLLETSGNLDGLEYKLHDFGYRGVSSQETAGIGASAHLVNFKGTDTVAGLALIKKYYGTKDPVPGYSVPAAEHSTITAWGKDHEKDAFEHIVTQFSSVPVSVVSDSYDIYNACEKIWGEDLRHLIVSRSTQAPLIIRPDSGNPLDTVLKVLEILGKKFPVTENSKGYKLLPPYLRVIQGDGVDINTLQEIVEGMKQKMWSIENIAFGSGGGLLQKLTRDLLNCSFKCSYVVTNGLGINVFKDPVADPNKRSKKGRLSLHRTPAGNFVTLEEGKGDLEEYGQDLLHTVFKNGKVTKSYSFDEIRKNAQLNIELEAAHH
Experiment: NAMPT Enzyme Activating Effect (In Vitro Cell-Free Enzyme Assay
readout-name: EC50 (nM)
Number only, in nM; omit the unit.

IN: Requested field: EC50. Item: O=C(NCc1ccncc1)Nc1ccn2nc(-c3ccccc3)nc2c1
OUT: 230
